Would you mind telling me the reported IC50, RGA of each entry?
Assayed system: T1, murine IL-11 (mouse, UniProt P47873 22-199)
T1 sequence: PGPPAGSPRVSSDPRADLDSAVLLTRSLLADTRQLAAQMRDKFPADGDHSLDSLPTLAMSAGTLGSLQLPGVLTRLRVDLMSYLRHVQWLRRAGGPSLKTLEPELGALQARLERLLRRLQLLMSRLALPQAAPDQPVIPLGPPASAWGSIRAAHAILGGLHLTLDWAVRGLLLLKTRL
Assay explanation: cell-based or functional assay
// return numeric value only (unit: nM, not printed)

According to the records, this binder TPP-31324 (antibody, IgG4, V domains shown, hIgG4 SPLE, lambda; FB - 1, back mutation VL-R55L) VH: QVQLVESGGGVVQPGRSLRLSCAASGFTFSHYDMHWVRQAPGKGLEWVAVISYEGSNKFYADSVKGRFTISRDNSKNTLYLQMNSLRAEDTAVYYCARTPGSHFDYWGQGTLVTVSS VL: QSVLTQPPSASGTPGQRVTISCSGSSSNIGSNYVNWYQQLPGTAPKLLIYYDDLLPSGVPDRFSGSKSGTSASLAISGLRSEDEADYYCAAWDDSLSGVVFGGGTKLTVL displays IC50, RGA of 1

Record TPP-31325 (antibody, human IgG4 S228P, lambda, V domains shown, hIgG4-SPLE, Lambda; also called final germline; FB with a back-mutation VL-A90S) VH: QVQLVESGGGVVQPGRSLRLSCAASGFTFSHYDMHWVRQAPGKGLEWVAVISYEGSNKFYADSVKGRFTISRDNSKNTLYLQMNSLRAEDTAVYYCARTPGSHFDYWGQGTLVTVSS VL: QSVLTQPPSASGTPGQRVTISCSGSSSNIGSNYVNWYQQLPGTAPKLLIYYDDLRPSGVPDRFSGSKSGTSASLAISGLRSEDEADYYCSAWDDSLSGVVFGGGTKLTVLG , field IC50, RGA: 0.6

The binder listed as TPP-31312 (antibody, IgG4, V domains shown, also called WT antibody; chimeric antibody) VH: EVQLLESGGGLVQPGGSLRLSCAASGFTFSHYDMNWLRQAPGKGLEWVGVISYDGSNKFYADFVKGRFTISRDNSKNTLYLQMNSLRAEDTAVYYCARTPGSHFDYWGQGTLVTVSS VL: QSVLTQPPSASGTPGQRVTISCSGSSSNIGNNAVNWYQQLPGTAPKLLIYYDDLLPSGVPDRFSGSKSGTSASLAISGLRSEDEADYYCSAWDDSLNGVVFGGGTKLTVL shows IC50, RGA equal to 9.8

So, TPP-31322 (antibody, IgG4, V domains shown, hIgG4 SPLE, lambda; FB - 1, back mutation VL-S31N) VH: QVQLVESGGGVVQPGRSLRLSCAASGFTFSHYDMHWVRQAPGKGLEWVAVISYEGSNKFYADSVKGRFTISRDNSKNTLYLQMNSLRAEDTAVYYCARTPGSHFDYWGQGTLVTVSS VL: QSVLTQPPSASGTPGQRVTISCSGSSSNIGNNYVNWYQQLPGTAPKLLIYYDDLRPSGVPDRFSGSKSGTSASLAISGLRSEDEADYYCAAWDDSLSGVVFGGGTKLTVL ? Its IC50, RGA was 1.4
